Quick reference for folding stability dG among some variants
B1: EEHEE_rd3_1049 (parent)
chain: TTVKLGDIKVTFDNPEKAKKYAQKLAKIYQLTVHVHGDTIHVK

- Variants of: B1
- method: folding stability dG (cDNA display proteolysis); higher = more stable
- cond: PBS, room temperature
observed_property: folding stability dG (kcal/mol)

• L5D = 0.531
• T32A = 1.79
• K9D = 1.28
• V10Y = 1.95
• T1H = 1.56
• H41F = 2.37
• T2S = 1.4
• K43H = 2.19
• Q23C = 3.24
• E16R = 1.82
• H41C = 2.41
• A22W = 1.24
• I40V = 1.3
• V42L = 2.83
• K17H = 2.02
• K19E = 1.47
• D38Q = 1.85
• G37R = 1.13
• I28Y = 2.14
• Q30D = 2.08
• T1K = 1.19
• K4E = 1.6
• Y21V = 0.867
• L5E = 0.422
• H41V = 2.44
• F12P = 0.089
• D7F = 2.83
• I8Q = 1.28
• H34I = 2.44
• P15Q = 1.65
• K24A = 1.98
• V35Q = 1.78
• V33L = 2.1
• A18W = 1.26
• K27Y = 2.13
• V35W = 1.99
• V33K = -0.112
• I8C = 3.42
• T2K = 1.26
• V3I = 1.34
• T11F = 2.51
• V42Q = 0.328
• V35K = 1.24
• N14C = 2.02
• Y21Q = -0.123
